B1: library; a variant is named by its letters at N, in order (parent)
chain: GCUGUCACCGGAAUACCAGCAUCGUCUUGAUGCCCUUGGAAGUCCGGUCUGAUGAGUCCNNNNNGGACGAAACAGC

- Variants of: B1
- test_description: normalized RNA/DNA level without ligand (relative to sTRSVctl = 100) (log10 (% of sTRSVctl)); higher = less ribozyme self-cleavage, higher mRNA level
- condition_label: HEK293T, reporter: mCherry (pCS4076), ligand present: no
value_type: normalized RNA/DNA level without ligand (log10)

- mutation_label: "UACUU"
  recorded_result: 1.9
- mutation_label: "UGUGU"
  recorded_result: 1.87
- mutation_label: "AGGCA"
  recorded_result: 1.79
- mutation_label: "CUGCU"
  recorded_result: 1.86
- mutation_label: "UACCC"
  recorded_result: 2.04
- mutation_label: "UUAGC"
  recorded_result: 1.94
- mutation_label: "AACCC"
  recorded_result: 1.97
- mutation_label: "AGACA"
  recorded_result: 1.72
- mutation_label: "GAACC"
  recorded_result: 1.87
- mutation_label: "AUCCA"
  recorded_result: 1.95
- mutation_label: "ACCGG"
  recorded_result: 1.94
